Measured z-score by item
- TEST SUMMARY: E. coli DRC41 culture turbidity changes, primary screen, E. coli filamentation inducer project, strain DRC41, OD650, 48 h (AID 1152);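 further: E. coli MC1000 strain DRC41 lacking acrAB efflux pump and sulA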
- MEASUREMENT PARAMETERS: E. coli DRC41 (acrAB sulA), higher = more signal, called active from +8 up or from −8 down
Output spec: single numeric token, no unit.

## Input What value of z-score has been recorded for this entry: C=CCNC(=O)[C@H]1[C@@H]2C(=O)O[C@@H](c3ccccc3)[C@@H](c3ccccc3)N2[C@@H](c2ccc(O)cc2)[C@]12C(=O)N(C(=O)OCCOC)c1ccc(C#Cc3ccc(OC)cc3)cc12
## Output -0.983

## Input Repeat with CN(C)CCCCCCNC(=O)[C@@H]1C[C@@H]2C(=O)N[C@@H](CCCC[N+](C)(C)C)C(=O)N2[C@@H]1c1cccc(OCCO)c1
## Output 1.44

## Input // repeat for C=C(CCCC)C(=O)CC[C@H](OC(=O)c1ccccc1-c1ccccc1C(=O)O)c1cccc(OCCO)c1 and report
## Output -0.497

## Input Can you handle COC(=O)c1ccc(OC)c(/C=C\CC(OC(=O)c2ccncc2)c2ccccc2)c1 (stereo not given) next?
## Output 2.32

New cases:
## Input Any idea what z-score was measured for COCCCNC(=O)[C@@]1(Cc2ccccc2I)c2ccccc2C(=O)N(Cc2ccccc2C(F)(F)F)[C@H]1c1ccc(CO)cc1 ?
## Output -0.506

Cited source: PubChem BioAssay
